# Species: Rattus norvegicus
# test_summary: Displacement of [3H]methyllycaconitine from Sprague-Dawley rat brain alpha7* nAChR at 1 uM incubated for 2.5 hrs by liquid scintillation counting analysis
# Assay type: tissue-based

compound: C[N+]12CCC(C1)N(C(=O)c1ccc3cccnc3c1)CC2 (configuration not stated)
Activity: < 20%

compound: O=C(NC1CN2CCC1CC2)c1cccc2cnccc12 (configuration not stated)
Activity: < 20%

compound: C[N+]12CCC(CC1)C(NC(=O)c1cccc3cnccc13)C2 (configuration not stated)
Activity: < 20%

compound: C[N+]12CCC(C1)N(C(=O)c1ccc3ncccc3c1)CC2 (configuration not stated)
Activity: < 20%

compound: C[N+]12C=C(c3ccc4ncccc4c3)C(CC1)CC2
Activity: < 20%

compound: C[N+]12CCC(C1)N(c1ccc3cnccc3c1)CC2 (configuration not stated)
Activity: < 20%

compound: c1cnc2cc(N3CCN4CCC3C4)ccc2c1 (configuration not stated)
Activity: < 20%

compound: O=C(c1cccc2cnccc12)N1CCN2CCC1CC2
Activity: < 20%

compound: O=C(c1ccc2cccnc2c1)N1CCN2CCC1C2 (configuration not stated)
Activity: < 20%

compound: C[N+]12CCC(C1)N(c1ccc3ncccc3c1)CC2 (configuration not stated)
Activity: < 20%

compound: c1cc(N2CCN3CCC2CC3)c2cccnc2c1
Activity: < 20%

compound: C1=C(c2ccc3ncccc3c2)C2CCN1CC2
Activity: < 20%

compound: C[N+]12CCC(C1)N(C(=O)c1cccc3cnccc13)CC2 (configuration not stated)
Activity: < 20%

compound: O=C(c1ccc2ncccc2c1)N1CCN2CCC1CC2
Activity: < 20%

compound: O=C(NC1CN2CCC1CC2)c1ccc2ncccc2c1 (configuration not stated)
Activity: < 20%

compound: C[N+]12CCC(CC1)C(NC(=O)c1ccc3ncccc3c1)C2 (configuration not stated)
Activity: < 20%

compound: c1cc(N2CCN3CCC2C3)c2cccnc2c1 (configuration not stated)
Activity: < 20%

compound: C[N+]12CCC(CC1)N(C(=O)c1ccc3cccnc3c1)CC2
Activity: < 20%

compound: C[N+]12CCC(C1)N(c1cccc3ncccc13)CC2 (configuration not stated)
Activity: < 20%

compound: c1cnc2ccc(C3CN4CCC3CC4)cc2c1 (configuration not stated)
Activity: < 20%

compound: O=C(c1ccc2cccnc2c1)N1CCN2CCC1CC2
Activity: < 20%

compound: O=C(c1ccc2ncccc2c1)N1CCN2CCC1C2 (configuration not stated)
Activity: < 20%

compound: O=C(c1cccc2cnccc12)N1CCN2CCC1C2 (configuration not stated)
Activity: < 20%

compound: c1cc2cc(N3CCN4CCC3C4)ccc2cn1 (configuration not stated)
Activity: < 20%

compound: C[N+]12CCC(CC1)C(NC(=O)c1ccc3cccnc3c1)C2 (configuration not stated)
Activity: < 20%

compound: C[N+]12CCC(CC1)N(C(=O)c1cccc3cnccc13)CC2
Activity: < 20%

compound: C[N+]12CCC(CC1)N(C(=O)c1ccc3ncccc3c1)CC2
Activity: < 20%

###

# test_summary: Displacement of [3H]cytisine from Wistar rat cerebral cortex alpha4beta2* nAChR incubated for 75 mins by competition binding assay
# Assay type: tissue-based
outcome_measure: Ki

molecule: c1cnc2ccc(N3CCN4CCC3C4)cc2c1 (stereo unspecified)
result_value: 412 nM
--
molecule: O=C(NC1CN2CCC1CC2)c1ccc2cccnc2c1 (stereo unspecified)
result_value: > 1000 nM
--
molecule: c1cnc2ccc(N3CCN4CCC3CC4)cc2c1
result_value: > 1000 nM
--
molecule: c1cnc2cc(N3CCN4CCC3CC4)ccc2c1
result_value: > 1000 nM
--
molecule: c1cc2cc(N3CCN4CCC3CC4)ccc2cn1
result_value: > 1000 nM
--
molecule: CN1CCC[C@H]1c1cccnc1 [NICOTINE]
result_value: 2.3 nM

###

# test_summary: Displacement of [3H]methyllycaconitine from Sprague-Dawley rat brain alpha7* nAChR incubated for 2.5 hrs by liquid scintillation counting analysis
# Assay type: tissue-based
Labelling: Ki reported below 10 nM becomes Satisfied; at or above becomes Not satisfied.

compound: O=C(NC1CN2CCC1CC2)c1ccc2cccnc2c1 (stereo not given)
label_class: Not satisfied
//
compound: Cc1ccc2oc(N3CCN4CCC3CC4)nc2n1
label_class: Not satisfied
//
compound: CCN1C[C@]2(COC(=O)c3ccccc3N3C(=O)CC(C)C3=O)CC[C@H](OC)[C@@]34C2[C@H](OC)[C@](O)(C13)[C@@]1(O)C[C@H](OC)[C@H]2C[C@@H]4[C@@H]1[C@H]2OC (stereo not given in full)
label_class: Satisfied
//
compound: c1cnc2cc(N3CCN4CCC3CC4)ccc2c1
label_class: Not satisfied
//
compound: c1cncc(C2CCC3CCN2CC3)c1 (stereo not given)
label_class: Not satisfied

###

Recorded Ratio Ki values for a group of molecules are listed next.
# Organism: Rattus norvegicus
# test_summary: Selectivity ratio of Ki for Wistar rat cerebral cortex alpha4beta2* nAChR to Ki for Sprague-Dawley rat brain alpha7* nAChR
# Type: tissue-based

molecule: c1cnc2cc(N3CCN4CCC3CC4)ccc2c1
Ratio Ki: 3
--
molecule: c1cc2cc(N3CCN4CCC3CC4)ccc2cn1
Ratio Ki: 3
--
molecule: c1cnc2ccc(N3CCN4CCC3CC4)cc2c1
Ratio Ki: 10
--
molecule: O=C(NC1CN2CCC1CC2)c1ccc2cccnc2c1 (centres undefined)
Ratio Ki: 3

###

# test_summary: Displacement of [3H]methyllycaconitine from Sprague-Dawley rat brain alpha7* nAChR incubated for 2.5 hrs by liquid scintillation counting analysis
# Assay type: tissue-based
pKi: −log10 of the molar value.

compound: O=C(Oc1ccc(Br)cc1)N1CCN2CCC1CC2
comparative_sign: =
pKi: 7.66
--
compound: c1cnc2ccc(N3CCN4CCC3C4)cc2c1 (stereo unspecified)
comparative_sign: <
pKi: 6.00
--
compound: c1cc2cc(N3CCN4CCC3CC4)ccc2cn1
comparative_sign: =
pKi: 6.61
--
compound: O=C(N[C@H]1CN2CCC1CC2)c1cc2cccc(Cl)c2s1
comparative_sign: =
pKi: 8.00
--
compound: O=C(N[C@H]1CN2CCC1CC2)c1ccc(Cl)cc1
comparative_sign: =
pKi: 7.62
--
compound: c1cnc2ccc(N3CCN4CCC3CC4)cc2c1
comparative_sign: =
pKi: 7.02
